target system: Serotonin 2 (5-HT2) receptor (Rattus norvegicus, UniProt P30994+P08909+P14842)
method notes: Ability to inhibit [3H]spiperone binding to 5-hydroxytryptamine 2 receptor determined in rat
readout label: Ki (nM)
Express it in nM; write the number only.

COc1ccccc1N1CCN(Cc2ccc(-c3ccc(F)cc3)[nH]2)CC1    310
OC1(c2ccc(Cl)cc2)CCN(Cc2ccc(-c3ccc(F)cc3)[nH]2)CC1    9300

Exercise: Which Ki is reported for this molecule? "COc1ccccc1N1CCN(CCCC(=O)c2ccc(F)cc2)CC1"
Solution: 52

Exercise: Next molecule up: "CCN1CCC[C@H]1CNC(=O)c1cc(S(=O)(=O)CC)ccc1OC"
Solution: 54000

Exercise: And then "COc1ccccc1N1CCN(CCNC(=O)c2ccc(F)cc2)CC1" , what is it?
Solution: 700

----------
target system: D(2) dopamine receptor (Rattus norvegicus)
Sequence (P61169 whole entry): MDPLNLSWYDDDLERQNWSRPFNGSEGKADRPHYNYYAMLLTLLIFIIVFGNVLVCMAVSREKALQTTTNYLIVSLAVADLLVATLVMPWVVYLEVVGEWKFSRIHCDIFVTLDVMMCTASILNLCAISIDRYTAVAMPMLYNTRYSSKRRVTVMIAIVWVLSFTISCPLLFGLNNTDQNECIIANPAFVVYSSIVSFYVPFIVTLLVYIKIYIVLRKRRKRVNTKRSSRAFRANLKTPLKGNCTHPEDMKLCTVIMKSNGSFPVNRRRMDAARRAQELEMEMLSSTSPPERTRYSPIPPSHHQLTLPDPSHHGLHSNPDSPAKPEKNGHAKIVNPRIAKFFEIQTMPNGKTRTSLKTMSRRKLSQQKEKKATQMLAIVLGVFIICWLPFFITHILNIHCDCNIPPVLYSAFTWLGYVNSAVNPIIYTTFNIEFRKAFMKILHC
method notes: Ability to inhibit the [3H]spiperone binding to striatum Dopamine receptor D2 was determined in rat
Quick reference: pKi of the listed items.
When answering, recall that pKi equals minus log10 of the concentration in mol/L, and write that number alone.

CCS(=O)(=O)c1ccc(OC)c(-c2ccc(CN3CCC(O)(c4ccc(Cl)cc4)CC3)[nH]2)c1    6.82
O=C(NCCN1CCC(O)(c2ccc(Cl)cc2)CC1)c1ccc(F)cc1    6.32
OC1(c2ccc(Cl)cc2)CCN(Cc2ccc(-c3ccc(F)cc3)[nH]2)CC1    5.96
CCN1CCC[C@H]1CNC(=O)c1cc(S(=O)(=O)CC)ccc1OC    8.03
COc1ccccc1N1CCN(Cc2ccc(-c3ccc(F)cc3)[nH]2)CC1    9.04

Exercise: Bench note: what pKi did "COc1ccccc1N1CCN(CCCC(=O)c2ccc(F)cc2)CC1" show?
Solution: 8.54

Exercise: Also, CCN1CCCC1c1ccc(-c2cc(S(=O)(=O)CC)ccc2OC)[nH]1 (stereo not drawn) please.
Solution: 7.54

Exercise: What do you get for "CCS(=O)(=O)c1ccc(OC)c(-c2ccc(CN3CCN(c4ccccc4OC)CC3)[nH]2)c1" ?
Solution: 8.14

----------
Test system: Rattus norvegicus
method notes: Suppression of conditioned avoidance behavior in rats when administered intraperitoneally 30 min before measurement
measurement conditions: ip
readout label: ED50 (mg/kg)
Kindly provide the numeric value in mg/kg only, without the unit symbol.

COc1ccccc1N1CCN(Cc2ccc(-c3ccc(F)cc3)[nH]2)CC1    2.3

Exercise: Report ED50 for O=C(CCCN1CCC(O)(c2ccc(Cl)cc2)CC1)c1ccc(F)cc1 [HALOPERIDOL] please.
Solution: 0.45

Exercise: Quick one: "COc1ccccc1N1CCN(CCNC(=O)c2ccc(F)cc2)CC1"
Solution: 0.74

Exercise: Further, for COc1ccccc1N1CCN(CCCC(=O)c2ccc(F)cc2)CC1 [FLUANISONE] ?
Solution: 2.2

----------
Tested on: Rattus norvegicus
method notes: Suppression of conditioned avoidance behavior in rats when administered intraperitoneally 30 min before measurement
measurement conditions: ip
readout label: ED50

OC1(c2ccc(Cl)cc2)CCN(Cc2ccc(-c3ccc(F)cc3)[nH]2)CC1    > 20 mg/kg
CCS(=O)(=O)c1ccc(OC)c(-c2ccc(CN3CCN(c4ccccc4OC)CC3)[nH]2)c1    > 20 mg/kg

Let us move to another entry and its ED50.
Exercise: Param item = CCN1CCC[C@H]1CNC(=O)c1cc(S(N)(=O)=O)ccc1OC [LEVOSULPIRIDE] ; retrieve measured ED50.
Solution: > 100 mg/kg
